Listed next: entries and their corresponding inhibition.
Target: Cathepsin B (Homo sapiens) (UniProt P07858)
Assay: cathepsin B inhibitors from pooled compounds, primary screen, biochemical, compound mixtures, AMC fluorescence (AID 488);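 note: 0% = enzyme without compound and 100% = no enzyme blank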
Conditions: Purified cathepsin B, AMC dipeptide fluorescence, active compounds read high,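 ten-compound pools at 5 µM per compound and 50 µM total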
Hit rate of the full screen: of about 62,000 compounds, about 40 (0.06%) were called active. The full list was thinned out, with actives kept by preference.

Recorded results for 2 compounds are shown here.
compound	quantity-name	result-value
O=C(CSc1nnc(-c2ccco2)n1Cc1ccccc1)NC(=O)NCc1ccco1	inhibition	-0.985% (inactive)
CN1CCN(CC(=O)C23CC4CC(CC(C4)C2)C3)CC1	inhibition	-16% (inactive)

Next up:
The compound listed as CN1CCN(C(=O)C2C3C=CC(C3)C2C(=O)O)CC1 (stereo not drawn) shows inhibition equal to 5.22% (inactive)

====

Target: Cathepsin B (Homo sapiens)
Experiment: cathepsin B inhibitors from pooled compounds, primary screen, biochemical, compound mixtures, AMC fluorescence (AID 488);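 note: 0% = enzyme without compound and 100% = no enzyme blank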
Settings: Purified cathepsin B, AMC dipeptide fluorescence, active compounds read high,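 ten-compound pools at 5 µM per compound and 50 µM total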
The campaign covered roughly 62,000 compounds. About 40 (0.06%) were called active. The full list was thinned out, with actives kept by preference.
Listed next: entries and their corresponding inhibition.
Field: numeric (%). Do not append units.

Recorded results for 5 compounds are shown here.
compound	value-units	inhibition
COc1ccc2c(c1)C=CC1(O2)N(CCO)c2ccccc2C1(C)C (stereo unspecified)	%	2.88
Cc1cc(Cl)c(S(=O)(=O)NCc2cccnc2)cc1OCC(N)=O	%	7.41
CC(C)(C)NC(=O)NC(=O)COC(=O)Cn1c(C(F)(F)F)nc2ccccc21	%	0.995
Cc1ccc(-c2noc(-c3ccccc3C(=O)NCC3CCCO3)n2)cc1 (stereo unspecified)	%	-4.67
Cc1ccccc1-c1nc(CS(=O)(=O)CC(=O)N2CCc3ccccc3C2)c(C)o1	%	4.15

Response field inhibition (Cathepsin B (Homo sapiens)) for item `CCOC(=O)N1CCN(C(=O)c2ccc(S(=O)(=O)c3ccc(C)cc3)c(NC(C)=O)c2)CC1` : 0.155

====

Listed next: entries and their corresponding inhibition.
Molecular target: Cathepsin B (Homo sapiens) (UniProt P07858)
Experiment: cathepsin B inhibitors from pooled compounds, primary screen, biochemical, compound mixtures, AMC fluorescence (AID 488);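 note: 0% = enzyme without compound and 100% = no enzyme blank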
Conditions: Purified cathepsin B, AMC dipeptide fluorescence, active compounds read high,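 ten-compound pools at 5 µM per compound and 50 µM total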
Hit rate of the full screen: of about 62,000 compounds, about 40 (0.06%) were called active. What follows is part of a selection rich in actives, with near analogues and random picks from the rest.
Field: numeric (%). Do not append units.

Response field inhibition (Cathepsin B (Homo sapiens) (UniProt P07858)) for item `O=c1cc(CO)oc(CN2CCC(Cc3ccccc3)CC2)c1O` : -2.05

Response field inhibition (Cathepsin B (Homo sapiens) (UniProt P07858)) for item `O=C(CCS(=O)(=O)c1cccc2nonc12)NCCc1ccccc1Cl` : 4.8

Response field inhibition (Cathepsin B (Homo sapiens) (UniProt P07858)) for item `COC(=O)c1c(NC(=O)CCN2CCOCC2)sc2c1CCCC2` : 3.41

Response field inhibition (Cathepsin B (Homo sapiens) (UniProt P07858)) for item `CCOC(=O)Cc1csc(NC(=O)CN(C)S(=O)(=O)c2ccc3c(c2)CCC(=O)N3)n1` : 3.69

Response field inhibition (Cathepsin B (Homo sapiens) (UniProt P07858)) for item `CCN1CCN(c2c(Cl)cccc2NC(=O)c2ccc(Br)o2)CC1` : 5.68

====

Listed next: entries and their corresponding inhibition.
Target: Cathepsin B (Homo sapiens)
Assay: cathepsin B inhibitors from pooled compounds, primary screen, biochemical, compound mixtures, AMC fluorescence (AID 488);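 note: 0% = enzyme without compound and 100% = no enzyme blank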
Conditions: Purified cathepsin B, AMC dipeptide fluorescence, active compounds read high,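 ten-compound pools at 5 µM per compound and 50 µM total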
The campaign covered roughly 62,000 compounds. About 40 (0.06%) were called active. This excerpt belongs to a sample that is enriched for actives.
Field: numeric (%). Do not append units.

Recorded results for 3 compounds are shown here.
CC(=O)Nc1ccc(S(=O)(=O)Nc2ccc(N3CCOCC3)c(F)c2)cc1 1.35
Nc1nonc1-c1nc2ccccc2n1CCC(=O)O 23.8
O=C(NCc1ccc(Cl)c(Cl)c1)c1cccnc1 -2.21

Response field inhibition (Cathepsin B (Homo sapiens)) for item `COCC(=O)Nc1nnc(COc2ccccc2)s1` : -8.97

Response field inhibition (Cathepsin B (Homo sapiens)) for item `COC(=O)[C@H](CCSC)NC(=O)Nc1ccc(OC)cc1` : 1.64

Response field inhibition (Cathepsin B (Homo sapiens)) for item `COc1ccc(-c2ccnc(SCC(=O)N3CCOCC3)n2)cc1` : -0.81
